Catalogue of inhibition in vivo at 50 mg/kg readings, one per entry.
Tested on: Rattus norvegicus
test description: Antiinflammatory activity against carrageenan-induced paw edema in Wister albino rat assessed as inhibition of edema at 50 mg/kg, ip administered 1 hr prior to carrageenan challenge measured after 2 hrs relative to control
Assay type: functional
measurement setup: route intraperitoneal
observation type: inhibition in vivo at 50 mg/kg (%)

In [3]: df
Out[3]:
                                item_smiles  measured_number
0  [3H]N1C(=O)[C@@]2(c3ccccc31)N(C)C[C@@H](c1cccs1)[C@@]21Cc2ccccc2C1=O             39.1
1  [3H]N1C(=O)[C@@]2(c3ccccc31)N(C)C[C@@H](c1ccco1)[C@@]21Cc2ccccc2C1=O             53.6
2  [3H]N1C(=O)[C@@]2(c3ccccc31)N(C)C[C@@H](c1ccc(Cl)cc1)[C@@]21Cc2ccccc2C1=O             28.4
3  [3H]C([3H])([3H])N1C(=O)[C@@]2(c3ccccc31)N(C)C[C@@H](c1ccc(C)cc1)[C@@]21Cc2ccccc2C1=O                8
4  [3H]C([3H])([3H])N1C(=O)[C@@]2(c3ccccc31)N(C)C[C@@H](c1ccc(OC)cc1)[C@@]21Cc2ccccc2C1=O             20.2
5  [3H]C([3H])([3H])N1C(=O)[C@@]2(c3ccccc31)N(C)C[C@@H](c1ccc(F)cc1)[C@@]21Cc2ccccc2C1=O             24.6
6  [3H]N1C(=O)[C@@]2(c3ccccc31)N(C)C[C@@H](c1ccc(OC)cc1)[C@@]21Cc2ccccc2C1=O             17.5

---

Catalogue of compounds with associated growth, % of control at 10 µM
Tested on: NCI-H322M
test description: Growth inhibition of human NCI-H322M cells at 10 uM after 48 hrs by sulforhodamine B assay
Type: functional
measurement setup: values are per cent of control
observation type: growth, % of control at 10 µM

In [3]: df
Out[3]:
                                item_smiles  result
0  [3H]N1C(=O)[C@@]2(c3ccccc31)N(C)C[C@@H](c1ccc(Cl)cc1)[C@@]21Cc2ccccc2C1=O    104%
1  [3H]C([3H])([3H])N1C(=O)[C@@]2(c3ccccc31)N(C)C[C@@H](c1ccc(OC)cc1)[C@@]21Cc2ccccc2C1=O    124%
2  [3H]C([3H])([3H])N1C(=O)[C@@]2(c3ccccc31)N(C)C[C@@H](c1cccs1)[C@@]21Cc2ccccc2C1=O   89.3%
3  [3H]C([3H])([3H])N1C(=O)[C@@]2(c3ccccc31)N(C)C[C@@H](c1ccc(Cl)cc1)[C@@]21Cc2ccccc2C1=O    106%
4  [3H]N1C(=O)[C@@]2(c3ccccc31)N(C)C[C@@H](c1ccc(OC)cc1)[C@@]21Cc2ccccc2C1=O    111%
5  [3H]N1C(=O)[C@@]2(c3ccccc31)N(C)C[C@@H](c1cccs1)[C@@]21Cc2ccccc2C1=O   98.9%

---

Test system: K562
test description: Growth inhibition of human K562 cells at 10 uM after 48 hrs by sulforhodamine B assay
Assay type: functional
measurement setup: K562, 48 h, values are per cent of control
Criterion: growth, % of control at 10 µM strictly less than 70%. Met: yes (1). Not met: no (0).

In [3]: df
Out[3]:
                                item_smiles  system_under_test  assigned_label
0  [3H]C([3H])([3H])N1C(=O)[C@@]2(c3ccccc31)N(C)C[C@@H](c1cccs1)[C@@]21Cc2ccccc2C1=O               K562          no (0)
1  [3H]C([3H])([3H])N1C(=O)[C@@]2(c3ccccc31)N(C)C[C@@H](c1ccc(OC)cc1)[C@@]21Cc2ccccc2C1=O               K562          no (0)
2  [3H]N1C(=O)[C@@]2(c3ccccc31)N(C)C[C@@H](c1ccc(OC)cc1)[C@@]21Cc2ccccc2C1=O               K562          no (0)
3  [3H]N1C(=O)[C@@]2(c3ccccc31)N(C)C[C@@H](c1cccs1)[C@@]21Cc2ccccc2C1=O               K562          no (0)
4  [3H]C([3H])([3H])N1C(=O)[C@@]2(c3ccccc31)N(C)C[C@@H](c1ccc(Cl)cc1)[C@@]21Cc2ccccc2C1=O               K562         yes (1)
5  [3H]N1C(=O)[C@@]2(c3ccccc31)N(C)C[C@@H](c1ccc(Cl)cc1)[C@@]21Cc2ccccc2C1=O               K562         yes (1)

---

# growth, % of control at 10 µM per entry
Tested on: DU-145
test description: Growth inhibition of human DU145 cells at 10 uM after 48 hrs by sulforhodamine B assay
Assay type: functional
measurement setup: DU-145, 48 h, values are per cent of control
observation type: growth, % of control at 10 µM (%)

>>> df
                                item_smiles               observation_type  output_unit  measured_number
0  [3H]N1C(=O)[C@@]2(c3ccccc31)N(C)C[C@@H](c1ccc(Cl)cc1)[C@@]21Cc2ccccc2C1=O  growth, % of control at 10 µM            %              103
1  [3H]C([3H])([3H])N1C(=O)[C@@]2(c3ccccc31)N(C)C[C@@H](c1cccs1)[C@@]21Cc2ccccc2C1=O  growth, % of control at 10 µM            %              121
2  [3H]N1C(=O)[C@@]2(c3ccccc31)N(C)C[C@@H](c1ccc(OC)cc1)[C@@]21Cc2ccccc2C1=O  growth, % of control at 10 µM            %              110
3  [3H]C([3H])([3H])N1C(=O)[C@@]2(c3ccccc31)N(C)C[C@@H](c1ccc(OC)cc1)[C@@]21Cc2ccccc2C1=O  growth, % of control at 10 µM            %              128
4  [3H]C([3H])([3H])N1C(=O)[C@@]2(c3ccccc31)N(C)C[C@@H](c1ccc(Cl)cc1)[C@@]21Cc2ccccc2C1=O  growth, % of control at 10 µM            %             91.1
5  [3H]N1C(=O)[C@@]2(c3ccccc31)N(C)C[C@@H](c1cccs1)[C@@]21Cc2ccccc2C1=O  growth, % of control at 10 µM            %               92
